The measurements presented in this section are drawn from patent US5576318A.

Would you kindly list pKi for each of these compounds?
- system_tested: 5-HT1A receptor (Rattus norvegicus, UniProt P19327)
- Sequence (P19327 1-422): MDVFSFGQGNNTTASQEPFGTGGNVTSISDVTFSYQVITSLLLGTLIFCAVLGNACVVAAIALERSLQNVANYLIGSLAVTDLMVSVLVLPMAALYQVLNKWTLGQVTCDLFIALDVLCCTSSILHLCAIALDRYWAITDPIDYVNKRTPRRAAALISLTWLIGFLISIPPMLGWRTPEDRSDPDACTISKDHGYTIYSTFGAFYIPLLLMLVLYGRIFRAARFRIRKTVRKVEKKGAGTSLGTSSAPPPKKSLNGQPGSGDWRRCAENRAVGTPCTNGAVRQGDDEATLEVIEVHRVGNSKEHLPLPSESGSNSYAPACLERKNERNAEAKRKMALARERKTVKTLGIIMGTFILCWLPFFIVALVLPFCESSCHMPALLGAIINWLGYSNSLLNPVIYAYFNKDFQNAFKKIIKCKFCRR
Just the number, please; pKi means minus log10 of the concentration in mol/L.

[in] So what does the record say about pKi for `O=c1[nH]c2ccccc2n1CCCCN1CCN(c2cccc3ccccc23)CC1` ?
[out] 8.00

[in] Recorded pKi for `Cn1c(=O)n(CCCCN2CCN(c3cccc(Cl)c3)CC2)c2ccccc21` , please?
[out] 7.52

[in] What pKi value was documented for this compound, `COc1ccc2[nH]c(=O)n(CCCCN3CCN(c4cccc(C(F)(F)F)c4)CC3)c2c1` ?
[out] 7.00

[in] Which pKi is listed for `O=c1[nH]c2ccccc2n1CCCN1CCN(c2cccc(C(F)(F)F)c2)CC1` ?
[out] 7.60

[in] Reported pKi for `COc1ccccc1N1CCN(CCCn2c(=O)[nH]c3ccccc32)CC1` : what is it?
[out] 8.30

[in] What value of measured pKi is listed for `COc1ccc2[nH]c(=O)n(CCCCN3CCN(c4ccccc4OC)CC3)c2c1` ?
[out] 7.92

[in] Need pKi of `CCn1c(=O)n(CCCCCCN2CCN(c3cccc(C(F)(F)F)c3)CC2)c2ccccc21` , thanks.
[out] 7.82

[in] Any idea what its pKi is? The compound is `CC(C)n1c(=O)n(CCCCN2CCN(c3cccc(C(F)(F)F)c3)CC2)c2ccccc21`
[out] 7.10
